Here, each record is paired with measured TGI data.
- Tested on: SNB-78 CNS
- TEST DETAILS: NCI tumour cell line growth inhibition, 48 h
EXPERIMENTAL READOUT: TGI

COMPOUND | EXPERIMENTAL READOUT | OBSERVED VALUE
CCOC(=O)N1C2C=C(C)C(ON2C(=O)c2ccccc2)C2C(C)C(=O)N21 (centres undefined) | TGI | > 100 µM
CCCOC(=O)C1CCC(=O)N1C(=O)C(C)Cl (centres undefined) | TGI | > 100 µM
CCOc1ccc(NC(=O)C(=O)NO)cc1 | TGI | > 100 µM
C=CCc1cc(-c2cc(CC=C)c(O)c(CNC)c2)cc(CNC)c1O | TGI | 40.8 µM
O=C(CCC(=O)Nc1cccc(Cl)c1)CC(=O)c1ccc(F)cc1 | TGI | > 100 µM
COc1ccc2c(c1)C(=O)N1CCOC1C2C(=O)O (centres undefined) | TGI | > 100 µM
NC(=O)C#CC#CC#CCO | TGI | 7.03 µM
C/C(=N\NC(N)=S)c1cc(C)c(C)cc1C | TGI | > 100 µM
CCCCCCCCCCCCCCCc1ccc(OCC(O)CO)cc1 (centres undefined) | TGI | 99.3 µM
O=S(=O)(N/N=C/c1ccc(Cl)c(Cl)c1)c1ccccc1 | TGI | > 100 µM
N#CCCN(c1ccc(/C=C2\N=C(Cc3ccccc3)OC2=O)cc1)S(=O)(=O)c1ccccc1 | TGI | > 100 µM
COc1ccc(NC(=O)CC(=O)N2N=C(N(CCC#N)c3ccccc3Cl)CC2c2ccccc2)cc1 (centres undefined) | TGI | > 100 µM
Cc1ccc(NP(=O)(Oc2ccccc2)N(CCCl)CCCl)cc1 (centres undefined) | TGI | > 100 µM
CSc1cccc(-n2c3nc(=O)n(C)c(=O)c-3nc3ccccc32)c1 | TGI | 43.7 µM

###

- Tested on: HCT-116 colon
- TEST DETAILS: NCI tumour cell line growth inhibition, 48 h; in the data active = GI50 below about 0.43 µM; inactive = the rest
Possible outcomes: active, inactive

MOLECULE | CLASS
Cc1ccc(NC(=O)Cc2ccc(/C=C/C(=O)c3ncc[nH]3)cc2)cc1 | inactive
Cc1ccc2c(c1)c1nc3cc(C)c(C)cc3nc1n2CCN(C)C | inactive
COc1ccc2c(c1)=C(C=C1C=CN(O)C=C1)C(=O)N=2 | inactive
CC(=O)N1N=C(c2ccc(Nc3nc(Nc4ccc(Cl)cc4)nc(Nc4ccc(Cl)cc4)n3)cc2)CC1c1ccc([N+](=O)[O-])cc1 (stereo not given) | inactive
Cc1cc2cc3cc(C)c(N(C)C)cc3[n+](C)c2cc1N(C)C | inactive
CN(CCCCCl)P(=O)(OCc1ccc([N+](=O)[O-])o1)OCC1OC(n2ccc(N)nc2=O)C(F)(F)C1O (stereo not given) | inactive
S=C(N/N=C(/c1ccccc1)c1ccccn1)N1CCCCC1 | active
Clc1ccc(/C=C/c2cc(N3CCOCC3)c3cc(Cl)c(Cl)cc3n2)cc1 | inactive
COc1cc(-n2cc(-c3ccc(F)cc3)nc2SCc2ccccc2)cc(OC)c1OC | inactive
CCCCCCNC(=O)c1cc(CCc2cc(O)ccc2O)ccc1O | inactive

###

- Test system: UACC-62 melanoma
- TEST DETAILS: NCI tumour cell line growth inhibition, 48 h

MOLECULE | READOUT QUALIFIER | TGI, µM
CC(=O)CCc1ccc(OC2OC(COC(=O)c3cc(O)c(O)c(O)c3)C(O)C(O)C2OC(=O)/C=C/c2ccccc2)cc1 (stereo not given) | = | 32.6
CCN1/C(=C/C=C/c2n(-c3ccccc3)c3ccc(-c4nc5ccccc5s4)cc3[n+]2CC)N(c2ccccc2)c2ccc(-c3nc4ccccc4s3)cc21 | > | 50
CCOC(=O)/C(=N\OC)C(O)C(F)(F)F (stereo not given) | > | 100
COc1ccccc1/C=C(\C#N)C(=O)c1ccccc1 | > | 100
N/C(=N\S(=O)(=O)c1cccc2nsnc12)Nc1ccc(Cl)cc1 | = | 35.2
COc1ccc(-n2cc(-c3cc(OC)c(OC)c(OC)c3)nc2SCc2ccccc2)cc1 | > | 100
O=C(CCC(=O)Nc1cccc(Cl)c1)CC(=O)c1ccc(F)cc1 | > | 100
O=c1c2c3c(sc2n2c(-c4cc(-c5ccccc5)no4)nnc2n1Cc1ccccc1)CCCC3 | = | 44
O=[N+]([O-])c1ccccc1N=Nc1c(O)[nH]c2ccc(Br)cc12 | = | 66.8
N#Cc1n[nH]n(C2CCCCC2)c1=O | > | 100

###

- System: CCRF-CEM leukemia
- TEST DETAILS: NCI tumour cell line growth inhibition, 48 h
Here, each record is paired with measured TGI data.

COMPOUND | SUBJECT OF TEST | UNIT DESCRIPTOR | READOUT QUALIFIER | TGI
CC(=O)Oc1c(C)c2c(O)c3c1C1=C(OCOC1=C(C)C3=O)/C(C)=C\C(C)(O)C(O)C(C)C(O)C1C(=O)OC(C(C)C1O)C(C)(O)/C=C/C=C(C)C(=O)N2 (stereo not given) | CCRF-CEM leukemia | µM | = | 61.4
CN(C)CCN(C)CC1COC(C)(C)O1 (stereo not given) | CCRF-CEM leukemia | µM | > | 100
C/C=C/C1=C(Cl)C(=O)[C@@H](Cl)[C@@]1(O)C(=O)OC | CCRF-CEM leukemia | µM | > | 24
Nc1ccccc1-c1ccc([N+](=O)[O-])cc1 | CCRF-CEM leukemia | µM | > | 100
C/C(=N\NC(N)=S)c1cc(C)c(C)cc1C | CCRF-CEM leukemia | µM | > | 100
Fc1ccc(-c2nn3c(-c4ccc(F)c(Cl)c4)nnc3s2)cc1 | CCRF-CEM leukemia | µM | = | 17.8
Cc1nc(-c2ccccc2)c(Cc2ccccc2O)c(=O)[nH]1 | CCRF-CEM leukemia | µM | > | 100
O=C(Nc1nc(C23CC4CC(CC(C4)C2)C3)cs1)c1c(O)c2ccccc2[nH]c1=O | CCRF-CEM leukemia | µM | > | 100
CC(C)CCC[C@@H](C)[C@H]1CC[C@H]2[C@@H]3CC[C@H]4C[C@H](N)CC[C@]4(C)[C@H]3CC[C@]12C | CCRF-CEM leukemia | µM | = | 8.5
COc1cc(-n2cc(-c3ccc(F)cc3)nc2SCc2ccccc2)cc(OC)c1OC | CCRF-CEM leukemia | µM | = | 43.8

###

Here, each record is paired with measured TGI data.
- Tested on: MALME-3M melanoma
- TEST DETAILS: NCI tumour cell line growth inhibition, 48 h
EXPERIMENTAL READOUT: TGI

COMPOUND | OBSERVED VALUE
Cc1ccc(N=NC2S/C(=C(\C#N)c3nc4ccccc4[nH]3)N(c3ccccc3)C2=O)cc1 (centres undefined) | > 100 µM
CC/C(=C(/c1ccc(OCCN(C)C)cc1)c1ccc(OC(=O)CCC(=O)c2c(C)[nH]c(/C=C3\N=C(c4ccc[nH]4)C=C3OC)c2C)cc1)c1ccccc1 | 6.35 µM
CC(C)c1nc2cc(C(F)(F)F)ccc2[nH]c1=O | > 100 µM
CCCCCCCc1cc(OC(=O)c2c(C)cc(OC)cc2O)cc(O)c1C(=O)O | 37.6 µM
CCOC(=O)c1c(-c2ccccc2)oc(-c2ccccc2)c1C(=O)OCC | > 100 µM
CCOCN1COCN=C1NC#N | > 100 µM
COc1cc(-c2nc3sccn3c2-c2ccnc(NCCNS(=O)(=O)c3ccc(Cl)cc3)n2)ccc1F | > 100 µM
CCN1C=C/C(=C\C=C/c2cc[n+](CC)c3ccccc23)c2ccccc21 | 30.5 µM
COC(=O)C1CCOC(C)N1C(=O)OC(C)(C)C (centres undefined) | > 100 µM
c1ccc2c(c1)sc1c3cnccc3ccc21 | > 100 µM
N#CCCN(c1ccc(/C=C2\N=C(Cc3ccccc3)OC2=O)cc1)S(=O)(=O)c1ccccc1 | > 100 µM
CC(=O)N1CN2C(=O)CCC2c2ccccc21 (centres undefined) | > 100 µM
COC(=O)C1=C(C)NC(C)=C(C(=O)OC)C1/C=C(\Cl)c1ccc(Cl)c(Cl)c1 | 35.9 µM
CN(C)c1nc(N(C)C)nc(N(C)CN(C)c2ccc(Cl)cc2)n1 | > 100 µM

###

- System: UACC-257 melanoma
- TEST DETAILS: NCI tumour cell line growth inhibition, 48 h

MOL SMILES | READOUT QUALIFIER | TGI [µM]
Cc1cc2cc3cc(C)c(N(C)C)cc3[n+](C)c2cc1N(C)C | = | 37.7
COc1ccc2c(c1)=C(C=C1C=CN(O)C=C1)C(=O)N=2 | > | 100
N#CCCN(c1ccc(/C=C2\N=C(Cc3ccccc3)OC2=O)cc1)S(=O)(=O)c1ccccc1 | > | 100
O=c1c2c3c(sc2n2c(-c4cc(-c5ccccc5)no4)nnc2n1Cc1ccccc1)CCCC3 | > | 74
CC(=O)Nc1ccc(/C=C/C(=O)c2ccccc2)cc1 | = | 54.7
